- procedureSummary: Plasma pharmacokinetics after single and multiple daily dosing
- assayContext: human, in vivo, 0.6 mg, Vz/F, mean (SD)
measuredQuantity: Vd/F (L)
Answer format: numeric, L implied, no suffix.

Field request: Vd/F | item: Cn1ncnc1[C@H]1c2n[nH]c(=O)c3cc(F)cc(c23)N[C@@H]1c1ccc(F)cc1 [talazoparib]
441

----------
- procedureSummary: Plasma pharmacokinetics after single and multiple daily dosing
- assayContext: human, in vivo, 1.1 mg, AUC0–t, mean (SD)
measuredQuantity: AUC(0-t) (ng·h/mL)
Give just the number in ng·h/mL; leave the unit off.

For the compound shown here, Cn1ncnc1[C@H]1c2n[nH]c(=O)c3cc(F)cc(c23)N[C@@H]1c1ccc(F)cc1 , give the reported AUC(0-t).
201

----------
- procedureSummary: Plasma pharmacokinetics after single and multiple daily dosing
- assayContext: human, in vivo, 0.025 mg, Tmax, median (min, max)
measuredQuantity: Tmax (h)
# number only, unit h dropped from output

Which Tmax is reported for this compound? Cn1ncnc1[C@H]1c2n[nH]c(=O)c3cc(F)cc(c23)N[C@@H]1c1ccc(F)cc1 [talazoparib]
7.92

----------
- procedureSummary: Plasma pharmacokinetics after single and multiple daily dosing
- assayContext: human, in vivo, 0.025 mg, Vz/F, mean (SD)
measuredQuantity: Vd/F
Reply with the number, then its unit.

I am curious: what Vd/F value has been reported for Cn1ncnc1[C@H]1c2n[nH]c(=O)c3cc(F)cc(c23)N[C@@H]1c1ccc(F)cc1 ?
756 L

These measurements were taken from paper PMC5905335.
